Target: BAF3 EGFR DEL T790M PURO POOL (Homo sapiens, UniProt P00533, DEL746-750/T790M, cells depend on it)
Sequence (P00533 with tags, fused parts or gaps DEL746-750/T790M): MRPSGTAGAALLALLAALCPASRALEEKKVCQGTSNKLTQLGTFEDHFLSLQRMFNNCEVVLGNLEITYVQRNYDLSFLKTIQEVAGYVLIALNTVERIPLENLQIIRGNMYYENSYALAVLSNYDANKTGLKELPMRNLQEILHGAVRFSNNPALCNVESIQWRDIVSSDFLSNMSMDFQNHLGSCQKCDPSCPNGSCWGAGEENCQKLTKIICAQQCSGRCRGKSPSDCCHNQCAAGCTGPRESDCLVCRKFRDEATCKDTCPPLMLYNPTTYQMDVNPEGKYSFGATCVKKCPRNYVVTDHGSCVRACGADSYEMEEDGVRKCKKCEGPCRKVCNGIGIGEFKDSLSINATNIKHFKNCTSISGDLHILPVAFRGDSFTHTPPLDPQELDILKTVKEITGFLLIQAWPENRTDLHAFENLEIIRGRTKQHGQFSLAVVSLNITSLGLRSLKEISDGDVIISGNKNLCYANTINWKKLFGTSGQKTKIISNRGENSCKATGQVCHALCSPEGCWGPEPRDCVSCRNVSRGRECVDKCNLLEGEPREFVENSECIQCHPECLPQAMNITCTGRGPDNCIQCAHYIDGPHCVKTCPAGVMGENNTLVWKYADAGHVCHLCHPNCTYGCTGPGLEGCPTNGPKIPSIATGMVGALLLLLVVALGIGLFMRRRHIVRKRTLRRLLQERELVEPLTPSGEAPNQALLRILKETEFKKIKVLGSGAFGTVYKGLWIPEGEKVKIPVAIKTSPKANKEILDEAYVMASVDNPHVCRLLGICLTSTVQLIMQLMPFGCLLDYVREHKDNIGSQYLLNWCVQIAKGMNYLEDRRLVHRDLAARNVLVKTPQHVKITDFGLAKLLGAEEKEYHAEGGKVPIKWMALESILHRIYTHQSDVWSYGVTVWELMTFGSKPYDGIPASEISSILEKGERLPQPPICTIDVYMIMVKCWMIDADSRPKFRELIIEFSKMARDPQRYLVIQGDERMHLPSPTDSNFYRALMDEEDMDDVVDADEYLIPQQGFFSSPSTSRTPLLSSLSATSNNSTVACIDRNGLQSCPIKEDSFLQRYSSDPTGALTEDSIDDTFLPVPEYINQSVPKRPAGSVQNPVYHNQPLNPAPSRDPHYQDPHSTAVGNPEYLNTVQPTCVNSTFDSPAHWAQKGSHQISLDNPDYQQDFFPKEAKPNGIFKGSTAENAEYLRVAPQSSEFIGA
Test: Cell proliferation (MTT), BAF3 EGFR DEL T790M
Assay type: cell-based
Reported values of IC50 for individual entries

- Compound: "C=CC(=O)Nc1cc(Nc2ncc(Cl)c(Nc3ccccc3P(C)(C)=O)n2)c(OC)cc1OCC(COC)N(C)C (stereo not drawn)"
  IC50: "< 51 nM"
- Compound: "C=CC(=O)Nc1cc(Nc2ncc(Cl)c(Nc3ccccc3P(C)(C)=O)n2)c(OC)cc1O[C@@H](COC)CN(CC)CC (stereo in doubt)"
  IC50: "< 51 nM"
- Compound: "C=CC(=O)Nc1cc(Nc2ncc(Cl)c(Nc3ccccc3P(C)(C)=O)n2)c(OC)cc1OC"
  IC50: "< 51 nM"
- Compound: "C=CP(C)(=O)Cc1ccc(OC)c(Nc2ncc(Cl)c(Nc3ccccc3P(C)(C)=O)n2)c1 (stereo not drawn)"
  IC50: "≥ 250 nM"
- Compound: "C=CC(=O)Nc1ccc(OC)c(Nc2ncc(Cl)c(Nc3ccccc3P(C)(C)=O)n2)c1"
  IC50: "< 51 nM"
- Compound: "C=CC(=O)N[C@@H]1CCC[C@@H](Nc2ncc(Cl)c(Nc3ccccc3P(C)(C)=O)n2)C1 (racemic)"
  IC50: "≥ 250 nM"
- Compound: "C=CC(=O)Nc1cc(Nc2ncc(Cl)c(Nc3ccccc3P(C)(C)=O)n2)c(OC)cc1OC(COC)CN(CC)CC (stereo not drawn)"
  IC50: "< 51 nM"
- Compound: "COc1ccc(NC(=O)C=C(C)C)cc1Nc1ncc(Cl)c(Nc2ccccc2P(C)(C)=O)n1"
  IC50: "≥ 250 nM"
- Compound: "C=CC(=O)Nc1cc(Nc2ncc(Cl)c(Nc3ccc(F)cc3P(C)(C)=O)n2)c(OC)cc1F"
  IC50: "< 51 nM"
- Compound: "C#CC(=O)Nc1ccc(OC)c(Nc2ncc(Cl)c(Nc3ccccc3P(C)(C)=O)n2)c1"
  IC50: "≥ 250 nM"
- Compound: "C=CC(=O)Nc1cc(Nc2ncc(Cl)c(Nc3ccccc3P(=O)(CC)CC)n2)c(OC)cc1F"
  IC50: "< 51 nM"
- Compound: "C=CC(=O)Nc1ccc(OC)c(Nc2ncc(Cl)c(Nc3cccc(C)c3P(C)(C)=O)n2)c1"
  IC50: "< 51 nM"
- Compound: "COc1ccc(N2C(=O)C=CC2=O)cc1Nc1ncc(Cl)c(Nc2ccccc2P(C)(C)=O)n1"
  IC50: "≥ 250 nM"
- Compound: "C=CC(=O)Nc1cc(Nc2ncc(Cl)c(Nc3ccccc3P(C)(C)=O)n2)c(OC)cc1N(C)CCN(CC)CC"
  IC50: "< 51 nM"
- Compound: "C=CC(=O)Nc1cc(Nc2ncc(Cl)c(Nc3ccccc3P(C)(C)=O)n2)c(OC)cc1CCN(CC)CC"
  IC50: "< 51 nM"
